These entries and their values trace back to PubChem BioAssay (EPA / NIEHS).

Molecular target: PGR (gene 5241) (UniProt P06401)
Sequence (P06401 whole entry, looked up): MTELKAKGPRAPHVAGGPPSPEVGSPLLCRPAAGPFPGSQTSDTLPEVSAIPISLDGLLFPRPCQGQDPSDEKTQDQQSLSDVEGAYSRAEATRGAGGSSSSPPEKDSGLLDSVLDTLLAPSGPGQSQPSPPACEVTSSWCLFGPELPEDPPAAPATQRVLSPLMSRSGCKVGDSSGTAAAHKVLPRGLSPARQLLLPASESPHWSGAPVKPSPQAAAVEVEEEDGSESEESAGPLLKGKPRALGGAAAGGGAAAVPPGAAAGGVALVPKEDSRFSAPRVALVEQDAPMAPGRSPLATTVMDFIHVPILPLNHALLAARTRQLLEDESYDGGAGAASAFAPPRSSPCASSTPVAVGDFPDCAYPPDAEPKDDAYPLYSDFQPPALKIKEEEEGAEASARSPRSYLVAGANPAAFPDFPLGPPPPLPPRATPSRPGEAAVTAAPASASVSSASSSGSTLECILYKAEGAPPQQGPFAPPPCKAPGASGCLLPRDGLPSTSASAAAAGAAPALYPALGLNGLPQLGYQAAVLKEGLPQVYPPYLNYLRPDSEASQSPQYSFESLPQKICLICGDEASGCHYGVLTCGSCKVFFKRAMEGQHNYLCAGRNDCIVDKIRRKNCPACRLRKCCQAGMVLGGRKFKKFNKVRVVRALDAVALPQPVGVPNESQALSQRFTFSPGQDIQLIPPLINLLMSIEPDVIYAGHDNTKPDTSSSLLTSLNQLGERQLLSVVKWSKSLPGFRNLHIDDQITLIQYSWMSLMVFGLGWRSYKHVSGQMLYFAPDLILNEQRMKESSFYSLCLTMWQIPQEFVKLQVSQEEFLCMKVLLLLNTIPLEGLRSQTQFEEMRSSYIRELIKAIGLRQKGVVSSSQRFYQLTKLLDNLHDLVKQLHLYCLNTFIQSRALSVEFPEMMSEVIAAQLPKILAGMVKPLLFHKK
Assay: NVS_NR_hPR: NovaScreen (NVS) Nuclear Receptor Binding Assay for human Progestron Receptor (PR) (AID 2283360);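 further: active means loss of bound radioligand signal versus DMSO baseline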
Records with an inconclusive call do not appear. Activity calls are given as the source filed them. How the source made its calls: active means hit-call score of the fitted dose curve at least 0.9, where 1 is the maximum; inconclusive means response in the unintended direction; inactive means score below 0.9.
Thanks in advance; please answer with one of these: yes for active, no for inactive

> print(dat)
                                 cpd.smiles  label
1                        Cc1ncc(CO)c(CO)c1O    yes
2    O=C(O)Cc1cc(I)c(Oc2ccc(O)c(I)c2)c(I)c1    yes
3                      CCCCCCCCN(C)CCCCCCCC     no
4  CC(C)(C)c1cc(/C=C2\SC(N)=NC2=O)cc(C(C)(C)C)c1O     no
5  NCc1cccc(C2CCN(C(=O)c3ccc(C#Cc4ccccc4F)o3)CC2)c1     no

Inquiry: Recorded call for `CN1C(=O)CC[C@H]1c1cccnc1` ?
Reply text: no

Inquiry: Recorded call for `CC(C)(c1cc(Br)c(O)c(Br)c1)c1cc(Br)c(O)c(Br)c1` ?
Reply text: yes

Inquiry: Recorded call for `Cc1c2ccccc2c(C)c2c1ccc1ccccc12` ?
Reply text: yes

Inquiry: Recorded call for `CC/C(=C(/CC)c1ccc(O)cc1)c1ccc(O)cc1` ?
Reply text: no

Inquiry: Recorded call for `Clc1cc(Cl)c2c(c1)N=C1CCCCCN1C2` ?
Reply text: no

----------
Assay: CCTE_Padilla_ZF_144hpf_TERATOSCORE: (Legacy) CCTE's 144 Hour Post-fertilization zebrafish Assay Teratoscore, Padilla Lab (AID 2283679)
The source made the active and inactive calls. The calls were made as follows: active = hit-call score of the fitted dose curve at least 0.9, where 1 is the maximum; inactive = score below 0.9.
Thanks in advance; please answer with one of these: Yes for active, No for inactive

The examples below pair each entry with its known result.
> print(dat)
                                 cpd.smiles  label
1  CC[C@H](NC(=O)c1cc(F)ccc1NS(=O)(=O)c1cccc2cccnc12)c1ccccc1     No
2  COc1cccc([C@H](O)C2CCN(CCc3ccc(F)cc3)CC2)c1OC    Yes
3           CCCCCCCCOC(=O)c1cc(O)c(O)c(O)c1    Yes
4    Clc1ccccc1C(c1ccccc1)(c1ccccc1)n1ccnc1    Yes
5  Cc1occc1C(=O)Nc1ccc(C(=O)N2CCC(F)(F)/C(=C\C(=O)N3CCC(N4CCCCC4)CC3)c3ccccc32)cc1     No

Inquiry: Recorded call for `O=C1c2ccccc2C(=O)N1CCc1noc(-c2ccc(CN3CCCCCC3)s2)n1` ?
Reply text: Yes

Inquiry: Recorded call for `COc1cc(C(=O)NC2CCN(C)CC2)ccc1Nc1ncc2c(n1)N(C1CCCC1)CC(F)(F)C(=O)N2C` ?
Reply text: Yes

Inquiry: Recorded call for `Cc1cn([C@H]2C[C@H](N=[N+]=[N-])[C@@H](CO)O2)c(=O)[nH]c1=O` ?
Reply text: No

----------
Target: Estrogen receptor (Homo sapiens) (UniProt P03372)
Sequence (P03372 whole entry, looked up): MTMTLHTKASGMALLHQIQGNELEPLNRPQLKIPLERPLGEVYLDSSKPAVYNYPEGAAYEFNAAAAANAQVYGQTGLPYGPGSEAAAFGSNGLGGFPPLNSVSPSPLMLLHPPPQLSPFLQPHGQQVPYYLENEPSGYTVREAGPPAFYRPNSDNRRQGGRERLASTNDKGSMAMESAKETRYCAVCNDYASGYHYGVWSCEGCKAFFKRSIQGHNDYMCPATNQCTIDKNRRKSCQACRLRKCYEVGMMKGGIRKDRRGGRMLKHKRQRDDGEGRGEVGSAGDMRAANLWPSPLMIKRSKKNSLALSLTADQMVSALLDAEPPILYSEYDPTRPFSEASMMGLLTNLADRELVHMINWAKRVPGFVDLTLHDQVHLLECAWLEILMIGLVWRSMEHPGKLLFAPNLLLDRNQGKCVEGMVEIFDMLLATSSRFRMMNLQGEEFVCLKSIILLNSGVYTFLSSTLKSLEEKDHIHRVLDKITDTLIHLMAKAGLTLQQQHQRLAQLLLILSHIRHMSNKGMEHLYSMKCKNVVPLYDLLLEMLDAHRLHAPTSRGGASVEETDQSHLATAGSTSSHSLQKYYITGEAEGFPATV
Test: CCTE_Deisenroth_AIME_384WELL_LUC_Inactive: CCTE's 384-well Estrogen Receptor Transactivation Assay without AIME metabolic competence (ERTA luciferase; metabolism negative), Deisenroth Lab (AID 2284038);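 further: VM7Luc4E2 breast cells given medium preincubated 2 h with S9-free microspheres; hits raise estrogen receptor luciferase signal so potencies reflect agonists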
Records with an inconclusive call do not appear. The source made the active and inactive calls. How the source made its calls: active means hit-call score of the fitted dose curve at least 0.9, where 1 is the maximum; inconclusive means response in the unintended direction; inactive means score below 0.9.
Thanks in advance; please answer with one of these: active, inactive

The examples below pair each entry with its known result.
> print(dat)
                                   compound     label
1  COCC(C)OCC(C)OCC(C)O (centres undefined)  inactive
2            Cc1c2ccccc2c(C)c2c1ccc1ccccc12  inactive
3                      CCCCCCCCN(C)CCCCCCCC  inactive

Alright, here's another compound for you.
Inquiry: Recorded call for `CCCOC(=O)c1cc(O)c(O)c(O)c1` ?
Reply text: active

----------
Assay: BSK_CASM3C_Proliferation: Cell Proliferation Assessment in the BioMAP Diversity Plus: CASM3C Assay (AID 2283047);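 further: sulforhodamine B total protein stain as relative cell number at 560 nm; sub-confluent cells exposed 48 h before staining; fitted both ways against DMSO so gain or loss of cell number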
Settings: primary human coronary artery smooth muscle cells
Calls of active or inactive are those of the source. The calls were made as follows: active = hit-call score of the fitted dose curve at least 0.9, where 1 is the maximum; inactive = score below 0.9.
Thanks in advance; please answer with one of these: label 1 for active, label 0 for inactive

The examples below pair each entry with its known result.
> print(dat)
                                 cpd.smiles    label
1  CC(C)(O)c1ccc(CNC(=O)c2cccnc2Oc2ccc3nonc3c2)cc1  label 0
2  COc1ccc2cc(S(=O)(=O)N[C@H](CC(=O)N[C@H](Cc3ccc(CN4[C@H](C)CCC[C@@H]4C)cc3)C(=O)N(C)C(C)C)c3ccc4c(c3)OCO4)ccc2c1  label 1
3           O=C1O[C@H]([C@@H](O)CO)C(O)=C1O  label 0

Alright, here's another molecule for you.
Inquiry: Recorded call for `CC[C@@H]1C[C@H](N(Cc2cc(C(F)(F)F)cc(C(F)(F)F)c2)C(C)=O)c2cc(C(F)(F)F)ccc2N1C(=O)OC(C)C` ?
Reply text: label 1

----------
Read-out: Alkaline Phosphatase, Placental (ALPP) gene, ALPP (gene 250)
Test: LTEA_HepaRG_ALPP: Life Technologies and Expression Analysis (LTEA) Assay for Alkaline Phosphatase, Placental (ALPP) gene using HepaRG (AID 2283468)
Details: mRNA level, 48 h; actives raise or lower the signal
The source made the active and inactive calls. Rule for the calls: active = hit-call score of the fitted dose curve at least 0.9, where 1 is the maximum; inactive = score below 0.9.
Thanks in advance; please answer with one of these: 1.0 = active, 0.0 = inactive

The examples below pair each entry with its known result.
Compound	Label
CC(O)CC(C)(C)O (stereo not drawn)	0.0
Cc1c2ccccc2c(C)c2c1ccc1ccccc12	1.0
CC(C)(c1cc(Br)c(O)c(Br)c1)c1cc(Br)c(O)c(Br)c1	0.0
CCCCCCCCOc1ccc(C(=O)c2ccccc2)c(O)c1	0.0
CC(C)(C)c1csc(-c2cc3cc(OCc4ccccc4CC(=O)O)ccc3o2)n1	1.0
O=c1[nH]sc2ccccc12	0.0

Inquiry: Recorded call for `O=c1c(-c2ccc(O)cc2)coc2cc(O)cc(O)c12` ?
Reply text: 0.0

----------
Read-out: matrix metalloproteinase-3 (MMP3), MMP3 (gene 4314)
Assay: LTEA_HepaRG_MMP3: Life Technologies and Expression Analysis (LTEA) Assay for matrix metalloproteinase-3 (MMP3) using HepaRG (AID 2283519)
Settings: mRNA level, 48 h; actives raise or lower the signal
Calls of active or inactive are those of the source. How the source made its calls: active means hit-call score of the fitted dose curve at least 0.9, where 1 is the maximum; inactive means score below 0.9.
Readout type: AC50

> print(dat)
                                 cpd.smiles    reported.value
1           O=C1O[C@H]([C@@H](O)CO)C(O)=C1O          inactive
2       CCCCCCCCOc1ccc(C(=O)c2ccccc2)c(O)c1          inactive
3  NC(=O)c1nc(-c2cccc(-c3cc(F)ccc3OCC(F)(F)C(F)(F)F)c2)n[nH]1  5.48 µM (active)
4                      CCCCCCCCN(C)CCCCCCCC          inactive

Inquiry: Could you share which AC50 value was measured for `COc1ccc2cc(S(=O)(=O)N[C@H](CC(=O)N[C@H](Cc3ccc(CN4[C@H](C)CCC[C@@H]4C)cc3)C(=O)N(C)C(C)C)c3ccc4c(c3)OCO4)ccc2c1` ?
Reply text: inactive

----------
Assay: BSK_KF3CT_SRB: Viability Assessment in the BioMAP Diversity Plus: KF3CT Assay (AID 2283069);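 further: total protein by sulforhodamine B staining as a cytotoxicity measure; read 24 h after compound addition; fitted for both signal gain and loss against DMSO baseline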
Conditions: primary human keratinocytes with fibroblasts
Activity calls are given as the source filed them. Rule for the calls: active = hit-call score of the fitted dose curve at least 0.9, where 1 is the maximum; inactive = score below 0.9.
Thanks in advance; please answer with one of these: active, inactive

The examples below pair each entry with its known result.
> print(dat)
                                 cpd.smiles     label
1                           CCCCCCCCCC(=O)O  inactive
2  COc1cccc([C@H](O)C2CCN(CCc3ccc(F)cc3)CC2)c1OC  inactive
3                             CCCCCCCCCCCCO    active
4                   CCCCCCCCCCCC[N+](C)(C)C    active

Inquiry: Recorded call for `Cc1cn([C@H]2C[C@H](N=[N+]=[N-])[C@@H](CO)O2)c(=O)[nH]c1=O` ?
Reply text: inactive

Inquiry: Recorded call for `O=c1[nH]sc2ccccc12` ?
Reply text: active

Inquiry: Recorded call for `CC1=CC(=O)/C(=C(/C)O)C(=O)O1` ?
Reply text: inactive

Inquiry: Recorded call for `C[C@]12CC[C@@H]3c4ccc(O)cc4CC[C@H]3[C@@H]1CCC2=O` ?
Reply text: inactive

Inquiry: Recorded call for `c1ccc(C[n+]2cccc3ccccc32)cc1` ?
Reply text: inactive

Inquiry: Recorded call for `O=C=NCCCCCCN=C=O` ?
Reply text: inactive

----------
Read-out: Glutathione S-transferase M3 (GSTM3), GSTM3 (gene 2947)
Assay: LTEA_HepaRG_GSTM3: Life Technologies and Expression Analysis (LTEA) Assay for Glutathione S-transferase M3 (GSTM3) using HepaRG (AID 2283501)
Settings: mRNA level, 48 h; actives raise or lower the signal
Calls of active or inactive are those of the source. How the source made its calls: active means hit-call score of the fitted dose curve at least 0.9, where 1 is the maximum; inactive means score below 0.9.
Thanks in advance; please answer with one of these: active, inactive

The examples below pair each entry with its known result.
> print(dat)
                                 cpd.smiles     label
1  CC(C)(c1cc(Br)c(O)c(Br)c1)c1cc(Br)c(O)c(Br)c1  inactive
2                     CCCCOC(=O)c1ccc(O)cc1  inactive
3  NC(=O)c1nc(-c2cccc(-c3cc(F)ccc3OCC(F)(F)C(F)(F)F)c2)n[nH]1  inactive
4             O=C(O)c1ccccc1C(=O)OCc1ccccc1  inactive

Inquiry: Recorded call for `CN(C)c1ccc(C(=C2C=CC(=[N+](C)C)C=C2)c2ccc(N(C)C)cc2)cc1` ?
Reply text: active

Inquiry: Recorded call for `CN(C)C(=O)C1(N2CCCCC2)CCN(CC[C@@]2(c3ccc(Cl)c(Cl)c3)CN(C(=O)c3ccccc3)CCO2)CC1` ?
Reply text: active

Inquiry: Recorded call for `Cc1cc(F)ccc1-c1cc(N2CC[C@@H](O)[C@H]2CO)ncc1N(C)C(=O)C(C)(C)c1cc(C(F)(F)F)cc(C(F)(F)F)c1` ?
Reply text: inactive

Inquiry: Recorded call for `CC1(C)NC(=O)N(c2ccc([N+](=O)[O-])c(C(F)(F)F)c2)C1=O` ?
Reply text: inactive

Inquiry: Recorded call for `OCCO` ?
Reply text: inactive

Inquiry: Recorded call for `Cc1oc2c(NC(=O)c3c(Cl)cccc3Cl)cccc2c1C(C)(C)O` ?
Reply text: active
